# Tested on: field corn (Zea mays L., var. Dekalb 535, CORN)
# test.method.notes: Pre-emerge test, crop safety
# Type: in vivo
# protocol.conditions: 63 g ai/ha; rated 14 days after application; 0 = no damage, 100 = complete death
Decision: Pre-emerge phytotoxicity rating (0-100), crop damage, CORN compared against 5; not below it gives Fulfilled, below it gives Not fulfilled.

# count of solved cases: 8
COc1c(Cl)cc(F)c(-n2c(=O)cc(C(F)(F)F)n(C)c2=O)c1NC(=O)c1ccc(CCl)cc1; Not fulfilled
CCOc1ccc(C(=O)Nc2c(OC)c(Cl)cc(F)c2-n2c(=O)cc(C(F)(F)F)n(C)c2=O)cc1; Not fulfilled
COc1c(Cl)cc(F)c(-n2c(=O)cc(C(F)(F)F)n(C)c2=O)c1NC(=O)C(C)=Cc1ccccc1; Not fulfilled
COc1c(Cl)cc(F)c(-n2c(=O)cc(C(F)(F)F)n(C)c2=O)c1NC(=O)c1ccc2ccccc2c1; Not fulfilled
COc1c(Cl)cc(F)c(-n2c(=O)cc(C(F)(F)F)n(C)c2=O)c1NC(=O)C=Cc1ccccc1Cl; Not fulfilled
COc1ccc(C(=O)Nc2c(OC)c(Cl)cc(F)c2-n2c(=O)cc(C(F)(F)F)n(C)c2=O)cc1; Fulfilled
COc1c(Cl)cc(F)c(-n2c(=O)cc(C(F)(F)F)n(C)c2=O)c1NC(=O)c1cc([N+](=O)[O-])cc([N+](=O)[O-])c1; Not fulfilled
COc1c(Cl)cc(F)c(-n2c(=O)cc(C(F)(F)F)n(C)c2=O)c1NC(=O)c1c(F)cccc1F; Fulfilled

Problem: Threshold query (Pre-emerge phytotoxicity rating (0-100), crop damage, CORN >= 5) on "COc1c(Cl)cc(F)c(-n2c(=O)cc(C(F)(F)F)n(C)c2=O)c1NC(=O)c1ccc(I)cc1"
Solution: Not fulfilled

Problem: Follow-up entry: "Cn1c(C(F)(F)F)cc(=O)n(-c2c(F)cc(Cl)c(O)c2NC(=O)c2ncccn2)c1=O"
Solution: Not fulfilled

Problem: Follow-up entry: "COc1c(Cl)cc(F)c(-n2c(=O)cc(C(F)(F)F)n(C)c2=O)c1NC(=O)c1ccc(Cl)cc1Cl"
Solution: Fulfilled

Problem: Follow-up entry: "COc1c(Cl)cc(F)c(-n2c(=O)cc(C(F)(F)F)n(C)c2=O)c1NC(=O)c1ccc(C(F)(F)F)cc1"
Solution: Fulfilled

Problem: Follow-up entry: "COc1c(Cl)cc(F)c(-n2c(=O)cc(C(F)(F)F)n(C)c2=O)c1N(C(=O)c1ccc(Cl)nc1)C(=O)c1ccc(Cl)nc1"
Solution: Fulfilled

* * *

# Tested on: upland rice (Oryza sp., var. Tebonnet, RICE)
# test.method.notes: Post-emerge test, crop safety
# Assay type: in vivo
# protocol.conditions: post-emerge, 63 g ai/ha, 14 days after application, rating scale 0-100
# Experimental: A standard greenhouse herbicide activity screening system was used to evaluate the herbicidal efficacy and crop safety of these test compounds. […] At 14 days after application of the test materials, phytotoxicity ratings were recorded. […]
Decision: RICE phytotoxicity rating (crop damage) compared against 20; not below it gives t, below it gives f.

# count of solved cases: 3
COc1c(Cl)cc(F)c(-n2c(=O)cc(C(F)(F)F)n(C)c2=O)c1NC(=O)C=Cc1ccccc1[N+](=O)[O-]; f
COc1c(Cl)cc(F)c(-n2c(=O)cc(C(F)(F)F)n(N)c2=O)c1NC(=O)c1ccc2ccccc2c1; t
COc1c(Cl)cc(F)c(-n2c(=O)cc(C(F)(F)F)n(C)c2=O)c1NC(=O)c1ccc2ccccc2c1OC; f

Problem: Threshold query (RICE phytotoxicity rating (crop damage) >= 20) on "COc1c(Cl)cc(F)c(-n2c(=O)cc(C(F)(F)F)n(N)c2=O)c1NC(=O)COCc1ccccc1"
Solution: t

Problem: Follow-up entry: "COc1c(Cl)cc(F)c(-n2c(=O)cc(C(F)(F)F)n(C)c2=O)c1NC(=O)CSC(C)C"
Solution: f

Problem: Follow-up entry: "COc1c(Cl)cc(F)c(-n2c(=O)cc(C(F)(F)F)n(C)c2=O)c1NC(=O)C=Cc1ccccc1F"
Solution: t
